Just for reference, patent US10662203B2 is where these values come from.

ASSAY_OVERVIEW: Cytotoxicity assay (HepG2, CellTiter-Blue cell viability)
Format: cell-based
CONDITION_INFO: human; HepG2 cells, 3 days treatment; "*": the detection limit; read-out: CC50
READOUT_KIND: CC50 at 3 days (µM)
Record the value in µM, omitting the unit from your answer.

[[record]]
compound = "CNc1cc(F)c(F)c2c1[nH]c1ncc(-c3cnc4c(c3)c(=O)c(C(=O)O)cn4C)c(N3CCCC3CN(C)C)c12 (stereo not drawn)"
unit_annotation = "µM"
endpoint_result = 39.2


Which CC50 at 3 days value belongs to CNc1cc(F)c(F)c2c1[nH]c1ncc(-c3cnc4c(c3)c(=O)c(C(=O)O)cn4C)c(N3CCC[C@H](N(C)C)C3)c12 [Example 3.06B] ?
40.2

---

ASSAY_OVERVIEW: Lyophilisation solubility assay (LYSA)
Type: physicochemical
CONDITION_INFO: phosphate buffer, pH 6.5, aqueous buffer, thermodynamic from solid, 0.05 M phosphate buffer, HPLC-UV
READOUT_KIND: solubility thermodynamic (µg/mL)
Record the value in µg/mL, omitting the unit from your answer.

[[record]]
compound = "CNc1cc(F)c(F)c2c1[nH]c1ncc(-c3cnc4c(c3)c(=O)c(C(=O)O)cn4C)c(N3C[C@@H](O)[C@@H](N(C)C)C3)c12 [Example 1.223]"
readout_kind = "solubility thermodynamic"
endpoint_result = 472

[[record]]
compound = "CNc1cc(F)c(F)c2c1[nH]c1ncc(-c3cnc4c(c3)c(=O)c(C(=O)O)cn4C)c(N3C[C@H](C)[C@@H](N(C)C)C3)c12 [Example 1.160]"
readout_kind = "solubility thermodynamic"
endpoint_result = 43


Kindly review the next compound as well.
Which solubility thermodynamic value belongs to CNc1cc(F)cc2c1[nH]c1ncc(-c3cnc4c(c3)c(=O)c(C(=O)O)cn4C)c(N3CCC[C@H]3CN(C)C)c12 [Example 1.162] ?
695

---

System: K. pneumoniae (ATCC10031)
ASSAY_OVERVIEW: 50% growth inhibitory concentration (IC50) determination assay
Format: cell-based
CONDITION_INFO: Iso-Sensitest broth, 0.098 = detection limit
READOUT_KIND: IC50

// known answers, use as guide
[[record]]
compound = "CNc1cc(F)c(F)c2c1[nH]c1ncc(-c3cnc4c(c3)c(=O)c(C(=O)O)cn4C3CCNC3)c(N3CCCC3)c12 (stereo not drawn)"
readout_kind = "IC50"
endpoint_result = "< 0.098 µM"

[[record]]
compound = "CNc1cc(F)c(F)c2c1[nH]c1ncc(-c3cnc4c(c3)c(=O)c(C(=O)O)cn4C3CCNC3)c(N(C)C)c12 (stereo not drawn)"
readout_kind = "IC50"
endpoint_result = "< 0.098 µM"


Which IC50 value belongs to CNc1cc(F)c(F)c2c1[nH]c1ncc(-c3cnc4c(c3)c(=O)c(C(=O)O)cn4C)c(N3C[C@H](C)[C@@H](N(C)C)C3)c12 ?
< 0.098 µM

---

System: K. pneumoniae (ATCC10031)
ASSAY_OVERVIEW: 50% growth inhibitory concentration (IC50) determination assay
Assay type: cell-based
CONDITION_INFO: Klebsiella pneumoniae, Iso-Sensitest broth, 0.098 = detection limit
Known IC50 of a selection of molecules

[[record]]
molecule = "CNc1cc(F)c(F)c2c1[nH]c1ncc(-c3cnc4c(c3)c(=O)c(C(=O)O)cn4C)c(N3CC(CN(C)C)C(F)(F)C3)c12 (stereo not shown) [Example 1.143]"
endpoint_result = "< 0.098 µM"


Which IC50 value belongs to CNc1cc(F)c(F)c2c1[nH]c1ncc(-c3cnc4c(c3)c(=O)c(C(=O)O)cn4NC)c(N3CCC4(CCN4C)C3)c12 (stereo not shown) [Example 1.238] ?
< 0.098 µM

Which IC50 value belongs to CNc1cc(F)cc2c1[nH]c1ncc(-c3cnc4c(c3)c(=O)c(C(=O)O)cn4C)c(N3CC4[C@H](CCN4C)C3)c12 (stereo partly shown) [Example 1.209] ?
< 0.098 µM

Which IC50 value belongs to CNc1cc(F)c(F)c2c1[nH]c1ncc(-c3cnc4c(c3)c(=O)c(C(=O)O)cn4C)c(N3CCC(OC)CC3)c12 [Example 1.40] ?
0.264 µM

Which IC50 value belongs to CNc1cc(F)cc2c1[nH]c1ncc(-c3cnc4c(c3)c(=O)c(C(=O)O)cn4C)c(N3CCC(F)(F)C3)c12 [Example 1.16] ?
< 0.098 µM

Which IC50 value belongs to CNc1cc(F)c(F)c2c1[nH]c1ncc(-c3cnc4c(c3)c(=O)c(C(=O)O)cn4C)c(N3CC4[C@@H](C3)OCCN4C)c12 (stereo partly shown) [Example 1.241] ?
< 0.098 µM

Which IC50 value belongs to CCn1cc(C(=O)O)c(=O)c2cc(-c3cnc4[nH]c5c(NC)cc(F)c(F)c5c4c3N(C)CCOC)cnc21 [Example 1.06] ?
0.17 µM

Which IC50 value belongs to CNc1cc(F)cc2c1[nH]c1ncc(-c3cnc4c(c3)c(=O)c(C(=O)O)cn4C)c(N3CCC(N(C)C)C3)c12 (stereo not shown) [Example 1.75] ?
< 0.098 µM

Which IC50 value belongs to CNc1cc(F)c(F)c2c1[nH]c1ncc(-c3cnc4c(c3)c(=O)c(C(=O)O)cn4NC)c(N3CC[C@H]4CN(C)C[C@H]43)c12 [Example 3.01A] ?
< 0.098 µM

Which IC50 value belongs to CNc1cc(F)c(F)c2c1[nH]c1ncc(-c3cnc4c(c3)c(=O)c(C(=O)O)cn4C)c(N3CC[C@H](N(C)C)C3)c12 [Example 1.254] ?
< 0.098 µM

---

ASSAY_OVERVIEW: Lyophilisation solubility assay (LYSA)
Assay type: physicochemical
CONDITION_INFO: phosphate buffer, pH 6.5, aqueous buffer, thermodynamic from solid, 0.05 M phosphate buffer, HPLC-UV
Experimental: Lyophilisation Solubility Assay (LYSA): The solubility of compounds of present invention was assessed by LYSA assay. Samples were prepared in duplicate from 10 mM DMSO stock solutions (20 μL) diluted in 30 μL pure DMSO. After evaporation of DMSO with a centrifugal vacuum evaporator, the residue was dissolved in 0.05 M phosphate buffer (150 μL, pH 6.5), which was stirred for one hour and shook for two hours. […] Then the filtrate and its 1/10 dilution were analyzed by HPLC-UV.
READOUT_KIND: solubility thermodynamic (mg/mL)
Record the value in mg/mL, omitting the unit from your answer.

// known answers, use as guide
[[record]]
molecule = "CNc1cc(F)c(F)c2c1[nH]c1ncc(-c3cnc4c(c3)c(=O)c(C(=O)O)cn4CC(C)(C)N)c(N3CCOCC3)c12"
endpoint_result = 0.015

[[record]]
molecule = "CNc1cc(F)cc2c1[nH]c1ncc(-c3cnc4c(c3)c(=O)c(C(=O)O)cn4C)c(N3CCOCC(CN(C)C)C3)c12 (stereo not drawn)"
endpoint_result = 0.7

[[record]]
molecule = "CNc1cc(F)c(F)c2c1[nH]c1ncc(-c3cnc4c(c3)c(=O)c(C(=O)O)cn4C)c(N3CCC[C@H]3CN(C)C)c12"
endpoint_result = 0.407

[[record]]
molecule = "CNc1cc(F)c(F)c2c1[nH]c1ncc(-c3cnc4c(c3)c(=O)c(C(=O)O)cn4COC)c(N3CC[C@H]4CN(C)C[C@H]43)c12 (relative stereo)"
endpoint_result = 0.366


Kindly review the next molecule as well.
Which solubility thermodynamic value belongs to CNc1cc(F)c(F)c2c1[nH]c1ncc(-c3cnc4c(c3)c(=O)c(C(=O)O)cn4C)c(N3CCC4(CF)CN(C)CC34)c12 (stereo not drawn) ?
0.151

---

Known IC50 of a selection of compounds
System: K. pneumoniae (ATCC10031)
ASSAY_OVERVIEW: 50% growth inhibitory concentration (IC50) determination assay
Assay type: cell-based
CONDITION_INFO: Klebsiella pneumoniae, Iso-Sensitest broth, 0.098 = detection limit

// known answers, use as guide
[[record]]
compound = "CNc1cc(F)c(F)c2c1[nH]c1ncc(-c3cnc4c(c3)c(=O)c(C(=O)O)cn4C)c(N3CC4CCCN(C)C4C3)c12 (stereo not drawn)"
endpoint_result = "< 0.098 µM"

[[record]]
compound = "CCNn1cc(C(=O)O)c(=O)c2cc(-c3cnc4[nH]c5c(NC)cc(F)c(F)c5c4c3N3CC[C@H]4CN(C)CC43)cnc21 (stereo partly drawn)"
endpoint_result = "< 0.098 µM"


Kindly review the next compound as well.
Which IC50 value belongs to CNc1cc(F)cc2c1[nH]c1ncc(-c3cnc4c(c3)c(=O)c(C(=O)O)cn4C)c(N3CC4[C@@H](C3)OCCN4C)c12 (stereo partly drawn) ?
< 0.098 µM

---

ASSAY_OVERVIEW: Cytotoxicity assay (HepG2, CellTiter-Blue cell viability)
Type: cell-based
CONDITION_INFO: human; HepG2 cells, 3 days treatment; "*": the detection limit; read-out: CC50
Known CC50 at 3 days of a selection of compounds

[[record]]
compound = "CNc1cc(F)c(F)c2c1[nH]c1ncc(-c3cnc4c(c3)c(=O)c(C(=O)O)cn4C)c(N3CCC4(CCCN4C)C3)c12 (stereo not drawn)"
endpoint_result = "32.9 µM"

[[record]]
compound = "CNc1cc(F)c(F)c2c1[nH]c1ncc(-c3cnc4c(c3)c(=O)c(C(=O)O)cn4NC)c(N3CC[C@H]4CN(C)C[C@H]43)c12 [Example 3.01A]"
endpoint_result = "54.1 µM"

[[record]]
compound = "CNc1cc(F)c(F)c2c1[nH]c1ncc(-c3cnc4c(c3)c(=O)c(C(=O)O)cn4C)c(N3CCCC(CN(C)C)C3)c12 (stereo not drawn)"
endpoint_result = "27.5 µM"

[[record]]
compound = "CNc1cc(F)c(F)c2c1[nH]c1ncc(-c3cnc4c(c3)c(=O)c(C(=O)O)cn4C)c(N3CCC4(CCN(C)C4)CC3)c12"
endpoint_result = "37.2 µM"

[[record]]
compound = "CNc1cc(F)cc2c1[nH]c1ncc(-c3cnc4c(c3)c(=O)c(C(=O)O)cn4C)c(N3CCO[C@H](CN(C)C)C3)c12 [Example 3.02B]"
endpoint_result = "> 100 µM"


Kindly review the next compound as well.
Which CC50 at 3 days value belongs to CNc1cc(F)c(F)c2c1[nH]c1ncc(-c3cnc4c(c3)c(=O)c(C(=O)O)cn4C)c(N3CCC[C@@H](N(C)C)C3)c12 [Example 3.06A] ?
52.5 µM
